B1: library; a variant is named by its letters at N, in order (parent)
chain: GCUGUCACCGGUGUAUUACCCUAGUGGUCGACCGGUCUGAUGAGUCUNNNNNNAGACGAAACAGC

Variants of: B1
EXPERIMENTAL PROTOCOL: normalized RNA/DNA level with ligand (relative to sTRSVctl = 100) (log10 (% of sTRSVctl)); ligand: hypoxanthine (xanthine aptamer); higher = less ribozyme self-cleavage, higher mRNA level
STUDY CONDITIONS: ligand concentration (+) RNA-Seq: 5 mM, HEK293T, reporter: mCherry (pCS4076), ligand present: yes
What normalized RNA/DNA level with ligand (log10) was measured for each of the following?
Answers are plain numbers.

Consider the reported normalized RNA/DNA level with ligand (log10) for these variants:
ACGCUG | 1.91
AUGGAC | 1.89
AUUAUA | 1.93
AUUUCA | 1.87
GCCCCC | 1.95
UUAGUG | 1.89
GAGAGG | 1.45
ACAUCA | 1.96
UCUUAU | 1.95
UUCCUA | 1.94

Your task in this section: give normalized RNA/DNA level with ligand (log10) for each listed record.
1. UGAAUG
2. CUGUGA
3. GUGUUU
4. CGCAGA

1.9
1.98
1.92
1.9
